Give composite z-score for every item shown.
Experiment: small-molecule microarray binders of probe aEGFR, primary screen, biochemical, biotinylated probe, 635/667 nm fluorescence (AID 1097);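 also: probe is a biotinylated anti-EGFR antibody binding compounds printed on slides; score combines fluorescence near 667 nm and signal to noise of each spot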
Conditions: higher = more signal

Here are 5 compounds together with their reported answers.
{"columns": ["COMPOUND", "composite z-score"],
 "data": [
  ["CC1C2C(CCCO)=CC(C3C(=O)N(C)C(=O)C23)N1Cc1cccc(OC(F)(F)F)c1 (centres undefined)", 0.1],
  ["Cc1ccc(S(=O)(=O)N2[C@@H](c3ccccc3)C(C(=O)O)=C[C@H]2C(C)(C)C)cc1", 0.131],
  ["COc1cc2c(cc1OC)CN(C(=O)[C@@H]1[C@H]3C(=O)O[C@H](c4ccccc4)[C@H](c4ccccc4)N3[C@H](c3ccc(O)cc3)[C@@]13C(=O)Nc1ccc(C#CC4=CCCCC4)cc13)CC2", 0.0324],
  ["C=CCOC(=O)[C@H]1[C@@H]2C(=O)O[C@@H](c3ccccc3)[C@@H](c3ccccc3)N2[C@@H](c2ccc(OCCOC(=O)[C@H]3C[C@H]4C(=O)NCC(=O)N4[C@H]3c3cccc(OCCO)c3)cc2)[C@]12C(=O)Nc1ccc(I)cc12", 0.0389],
  ["COCCCNC(=O)[C@@]1(c2ccc([N+](=O)[O-])cc2)CC(=O)N(C2CCCCC2)[C@@H]1c1ccc(CO)cc1I", -0.0967]
]}

For each of the compounds below, note its composite z-score.
1. CN1C(=O)C2CC=C(C3=CCO[C@@H]3[C@H]3CCCN3S(=O)(=O)c3ccccc3[N+](=O)[O-])CC2C1=O (some centres undefined)
2. COc1c(C)cc(-c2cc3c(c(CCc4ccccc4)n2)[Si](C(C)C)(C(C)C)O[C@H]3c2ccccc2)cc1C
3. CC(C)Cc1ccc(CN2CC[C@@H](NC(=O)c3ccccc3)C2)cc1

Result string:
-0.171
-0.162
-0.157

For each of the compounds below, note its composite z-score.
1. O=C1C2C=CC(C(O)c3ccccn3)N(Nc3ccc([N+](=O)[O-])cc3)C2C(=O)N1c1ccccc1 (centres undefined)
2. COC(=O)C(CC#Cc1ccc2c(c1)[C@]1(C(=O)N2)[C@H](C(=O)N2CCCCCCC2)[C@H]2C(=O)O[C@H](c3ccccc3)[C@H](c3ccccc3)N2[C@@H]1c1ccc(OCCO)cc1)C(=O)OC

Result string:
-0.047
1.38

For each of the compounds below, note its composite z-score.
1. Cc1ccc(S[C@]2(C(=O)NC(C)C)CC(=O)N(Cc3ccccc3)[C@@H]2c2ccc(CO)cc2I)cc1
2. CCCC[C@@H](O)C1=C(C)Cn2c(=O)n(-c3ccccc3)c(=O)n2[C@H]1CO
3. CC1C2C(CCCO)=CC(C3C(=O)N(C(N)=O)C(=O)C23)N1Cc1cccc(OC(F)(F)F)c1 (centres undefined)
4. C=CCNC(=O)[C@H]1[C@@H]2C(=O)O[C@@H](c3ccccc3)[C@@H](c3ccccc3)N2[C@@H](c2ccc(O)cc2)[C@]12C(=O)Nc1ccccc12

Result string:
1. -0.0146
2. -0.0517
3. -0.0828
4. -0.177

For each of the compounds below, note its composite z-score.
1. CC(C)N1C(=O)[C@@]2(Cc3ccccc31)c1ccccc1C(=O)N(Cc1ccccc1C(F)(F)F)[C@H]2c1ccc(CO)cc1
2. COC(=O)[C@@]1(Cc2ccc(F)cc2)[C@H]2c3cc(C(=O)N(C)C)n(Cc4ccsc4Br)c3C[C@H]2CN1C(=O)c1ccccc1

Result string:
1: 0.116; 2: 1.06

For each of the compounds below, note its composite z-score.
1. COc1ccc([Si](C)(C)[C@@H]2[C@@H](CC(=O)N3Cc4ccccc4C[C@H]3CO)O[C@]3(C(=O)N(Cc4ccc(I)cc4)c4ccccc43)[C@H]2C)cc1
2. CCCCCN1CC=CC23O[C@@H]4/C=C\CCCOC(=O)C4[C@H]2C(=O)N(CCO)[C@@H]3C1=O (some centres undefined)
3. C=C(COC)C(=O)CC[C@@H](OC(=O)c1ccccc1-c1ccccc1C(=O)O)c1ccccc1OCCO
4. C[C@]1(C(=O)NC2CC2)c2ccccc2C(=O)N(Cc2cc(F)cc(C(F)(F)F)c2)[C@H]1c1ccc(CO)cc1

Result string:
1. -0.0982
2. -0.0987
3. -0.184
4. -0.312

For each of the compounds below, note its composite z-score.
1. Cc1ccc(N2C(=O)c3ccccc3[C@@H](C(=O)NCCN3CCOCC3)[C@@H]2c2ccc(CO)cc2)nc1
2. C=CC[C@@]1(C(=O)NCCCOC)N=C(c2ccc(OCCCO)cc2)O[C@@H]1c1ccccc1CN=[N+]=[N-]
3. C=CCC(OC(C)=O)[C@@H]1[C@@H](N(Cc2cccc3ccccc23)C(=O)c2ccc(C)cc2)c2cc(OCCCO)ccc2N1C(=O)Cc1ccc2ccccc2c1 (some centres undefined)
4. CC(C)C[C@@H]1NC(=O)[C@@H]2C[C@H](C(=O)NCCCCCCNC(=O)CS)[C@H](c3ccc(O)cc3)N2C1=O
5. COc1ccc([Si](C)(C)[C@H]2[C@H](CC(=O)N3CCC[C@H]3CO)O[C@@]3(C(=O)N(C)c4ccccc43)[C@@H]2C)cc1

Result string:
-0.197
0.0914
-0.184
0.0886
-0.151

For each of the compounds below, note its composite z-score.
1. C[C@]1(C(=O)O)c2ccccc2C(=O)N(Cc2cc(C(F)(F)F)cc(C(F)(F)F)c2)[C@H]1c1ccc(CO)cc1
2. C=C(CCCC)C(=O)CC[C@H](OC(=O)c1ccccc1-c1ccccc1C(=O)O)c1cccc(OCCO)c1
3. O=C1O[C@H](c2ccccc2)[C@H](c2ccccc2)N2[C@H]1[C@@H](C(=O)O)[C@]1(C(=O)Nc3ccccc31)[C@H]2c1ccc(OCCO)cc1
4. CCCCCCc1nc(-c2ccc(OC)nc2)c(C)c2c1[Si](C(C)C)(C(C)C)OC2

Result string:
1. -0.186
2. -0.221
3. -0.177
4. -0.131
